B1: CPEB3 Ribozyme (parent)
chain: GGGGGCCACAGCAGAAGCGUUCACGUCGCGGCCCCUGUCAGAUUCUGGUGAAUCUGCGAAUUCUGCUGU

variants of: B1; assay: self-cleavage, relative activity (ratio to wild type); higher = more cleavage; co-transcriptional
measurement-label: self-cleavage
// return just the number, without any unit appended

Solved entries:
{"input-sequence": "GGGGGCCACAGCAGAAGCGUUCACGUCGCGGCUCCUGACAGAUUCUGGUGAAUCUGCGAAUUCUGCUGU [C33U U38A]", "measurement-label": "self-cleavage", "assay-result": 0.913}
{"input-sequence": "GGGGGCCACAGCAGAAGCGUUCACGUCGCGGCCCCUGCCAGAUUCUGGUGAAACUGCGAAUUCUGCUGU [U38C U53A]", "measurement-label": "self-cleavage", "assay-result": 0.883}
{"input-sequence": "GGGGGCCACAGCAGAAGCGUUCACGUCGCGGCCCCUGUCAGAUUCUGGUGAAUCGGCGAAUUCUGCUGU [U55G]", "measurement-label": "self-cleavage", "assay-result": 0.881}

Below: the item to evaluate.
I am curious: what self-cleavage value has been reported for AAGGGCCACAGCAGAAGCGUUCACGUCGCGGCCCCUGUCAGAUUCUGGUGAAUCUGCGAAUUCUGCUGU [G1A G2A] ? 0.302
